Assay: qHTS for differential inhibitors of proliferation of Plasmodium falciparum line GB4 (AID 1816);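 also: parasite growth measured after 72 h incubation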; also: potency is read from the fitted curve at half-maximal effect
Details: Plasmodium falciparum GB4 proliferation inhibition; series mostly up to 28.7 µM
Results filed as inconclusive are left out. The source made the active and inactive calls. Calls follow the shape of the dose curve; as a rule, active = well fitted curve in the direction sought with a large enough effect; inconclusive = small, poorly fitted or top-dose-only effect, or another doubt; inactive = no such curve, though single readings can be large or run the other way.
MEASURED ENDPOINT: Potency

{"columns": ["MOLECULE", "RESULT"],
 "data": [
  ["NCCCP(=O)(O)O", "inactive"],
  ["CC1(C(=O)O)C2CCC(O2)C1(C)C(=O)O (stereo not given)", "3.16 µM (active)"],
  ["O=C(O)c1cc[c]([Hg][Cl])cc1", "2.51 µM (active)"],
  ["N[C@@]1(C(=O)O)CC[C@@H](C(=O)O)C1", "inactive"]
]}

Moving on to another molecule below.
Task: Consider the molecule NC(=O)CI . State its measured Potency.
Result: inactive
